tested on: Colon cancer organoid; test: Optimized Dual-Glo assay to identify co-culture induced drug vulnerabilities using donated chemical probes and chemogenomics kinase set in O06 CRC organoid and F06 CAF mono and co-culture. […] Cell viability is reported both mono and co-culture models.; assay type: functional, Homo sapiens; set-up: dose or concentration left out as unconfirmed; conditions: Culture type Mono-Culture; Transduced with Renilla-dsRed lentivirus
The following compounds are shown together with reported Cell Viability values.
Measure: Cell Viability (%)

[[record]]
compound = "Cc1nc(NC(=O)N2CCC[C@H]2C(N)=O)sc1-c1ccnc(C(C)(C)C(F)(F)F)c1"
target_of_assay = "Colon cancer organoid"
measure = "Cell Viability"
unit_of_measurement = "%"
value = 69.5837

[[record]]
compound = "C[C@H](c1ccc(F)cc1)N(Cc1ccc(Cl)c(C(=O)O)c1)C(=O)c1cnc2ccccc2c1"
target_of_assay = "Colon cancer organoid"
measure = "Cell Viability"
unit_of_measurement = "%"
value = 88.8687

[[record]]
compound = "FC(F)(F)c1ccc2c(c1)nc(-c1cccnc1)n2C1CC1 [MSD-CYP11B2-Negative-control]"
target_of_assay = "Colon cancer organoid"
measure = "Cell Viability"
unit_of_measurement = "%"
value = 100.759

[[record]]
compound = "CN(C)C(=O)/C(C#N)=C/c1ccc(-c2nc3cnc4c(ccn4C)c3n2C2CCCCC2)o1"
target_of_assay = "Colon cancer organoid"
measure = "Cell Viability"
unit_of_measurement = "%"
value = 133.695

[[record]]
compound = "CC[C@@H]1C(=O)N(C)c2cnc(Nc3ccc(C(=O)NC4CCN(C)CC4)cc3OC)nc2N1C1CCCC1"
target_of_assay = "Colon cancer organoid"
measure = "Cell Viability"
unit_of_measurement = "%"
value = 205.81

[[record]]
compound = "Cc1nc(N2CC[C@H](O)C2)ncc1-c1cc(C(F)(F)F)cc2[nH]ncc12"
target_of_assay = "Colon cancer organoid"
measure = "Cell Viability"
unit_of_measurement = "%"
value = 94.0965

[[record]]
compound = "Cn1c(=O)[nH]c2cc(N3C(=O)c4cccc5c(CCCO)ccc(c45)C3=O)ccc21"
target_of_assay = "Colon cancer organoid"
measure = "Cell Viability"
unit_of_measurement = "%"
value = 109.161

[[record]]
compound = "CCS(=O)(=O)Nc1ccc(Oc2ccc(F)cc2F)c(-c2cn(C)c(=O)c3[nH]ccc23)c1"
target_of_assay = "Colon cancer organoid"
measure = "Cell Viability"
unit_of_measurement = "%"
value = 153.585

[[record]]
compound = "Cl.Cl.NC1(c2ccc(-c3nc4ccn5c(=O)[nH]nc5c4cc3-c3ccccc3)cc2)CCC1"
target_of_assay = "Colon cancer organoid"
measure = "Cell Viability"
unit_of_measurement = "%"
value = 69.8373

[[record]]
compound = "Cl.O=C([C@@H](Cc1cccc(C(F)(F)F)c1)NS(=O)(=O)c1cc(F)c2c(c1)CCNC2)N1CCCC1"
target_of_assay = "Colon cancer organoid"
measure = "Cell Viability"
unit_of_measurement = "%"
value = 93.27

[[record]]
compound = "CC1=C(C#N)C(c2ccc3[nH]nc(C)c3c2)C(C#N)=C(C)N1"
target_of_assay = "Colon cancer organoid"
measure = "Cell Viability"
unit_of_measurement = "%"
value = 96.2381

[[record]]
compound = "OCCn1cc(-c2ccc3c(c2)CCC3=NO)c(-c2ccncc2)n1"
target_of_assay = "Colon cancer organoid"
measure = "Cell Viability"
unit_of_measurement = "%"
value = 121.815

[[record]]
compound = "COc1cc(-c2cn(C)c(=O)c3cnccc23)c(OC)cc1CN(C)C"
target_of_assay = "Colon cancer organoid"
measure = "Cell Viability"
unit_of_measurement = "%"
value = 96.9165

[[record]]
compound = "Cc1sc2c(c1C)C(c1ccc(Cl)cc1)=N[C@@H](CC(=O)OC(C)(C)C)c1nnc(C)n1-2"
target_of_assay = "Colon cancer organoid"
measure = "Cell Viability"
unit_of_measurement = "%"
value = 273.458

[[record]]
compound = "COc1cc(Nc2nc(C)cc(-c3cnn4nc(OC)ccc34)n2)cc(C(F)(F)F)c1"
target_of_assay = "Colon cancer organoid"
measure = "Cell Viability"
unit_of_measurement = "%"
value = 118.145

[[record]]
compound = "CC1=C(C(=O)Nc2cc3cn[nH]c3cc2F)C(c2ccc(C(F)(F)F)cc2)CC(=O)N1 (stereo not drawn)"
target_of_assay = "Colon cancer organoid"
measure = "Cell Viability"
unit_of_measurement = "%"
value = 107.646

[[record]]
compound = "Cc1c(N2CCNCC2)nc2ccc(Br)cc2c1C(=O)NC[C@H](CCC(=O)O)c1ccccc1Cl"
target_of_assay = "Colon cancer organoid"
measure = "Cell Viability"
unit_of_measurement = "%"
value = 113.122

[[record]]
compound = "C=CC(=O)Nc1ccc2[nH]c(=O)n(C3CCN(Cc4ccc(-c5ccc6c(c5)NC(=O)CO6)cc4)CC3)c2c1"
target_of_assay = "Colon cancer organoid"
measure = "Cell Viability"
unit_of_measurement = "%"
value = 83.8435

[[record]]
compound = "CC(C)C(=O)Nc1n[nH]c2cc(-c3cccc(NS(=O)(=O)C4CC4)c3)ccc12"
target_of_assay = "Colon cancer organoid"
measure = "Cell Viability"
unit_of_measurement = "%"
value = 124.696

[[record]]
compound = "CCC(=O)N1CCN(c2ccc(-n3c(=O)ccc4cnc5ccc(-c6cnc7ccccc7c6)cc5c43)cc2C(F)(F)F)CC1"
target_of_assay = "Colon cancer organoid"
measure = "Cell Viability"
unit_of_measurement = "%"
value = 17.8443

[[record]]
compound = "C[C@@]1(Cc2ccc(C#N)cc2)C(=O)N(c2cc(Cl)cc(Cl)c2)c2ncc(C(=O)NC3(c4nc(C5CCC5)no4)CC3)n21"
target_of_assay = "Colon cancer organoid"
measure = "Cell Viability"
unit_of_measurement = "%"
value = 102.688

[[record]]
compound = "CCn1cc(-c2cccc(C(F)(F)F)c2)c2sc(C(=N)NC3CCS(=O)(=O)CC3)cc2c1=O"
target_of_assay = "Colon cancer organoid"
measure = "Cell Viability"
unit_of_measurement = "%"
value = 200.249

[[record]]
compound = "CC(=O)c1c(NS(C)(=O)=O)c2cc(-c3ccc(Cl)cc3)c(-c3ccc(Cl)cc3Cl)nc2n(C)c1=O"
target_of_assay = "Colon cancer organoid"
measure = "Cell Viability"
unit_of_measurement = "%"
value = 112.651

[[record]]
compound = "CN(C)c1ncnc(-c2ccc3nc(Nc4cc(CN5CCN(C(=O)CC(F)(F)F)CC5)ccn4)[nH]c3c2)c1Cl"
target_of_assay = "Colon cancer organoid"
measure = "Cell Viability"
unit_of_measurement = "%"
value = 88.7418

[[record]]
compound = "Cn1nc(C(F)(F)F)cc1-c1cnc(N2CCc3cc(S(=O)(=O)Nc4c(F)cc(Cl)cc4F)cc(N4CCCC4=O)c32)nc1"
target_of_assay = "Colon cancer organoid"
measure = "Cell Viability"
unit_of_measurement = "%"
value = 102.548

[[record]]
compound = "CN(C)C(=O)N1CC[C@H](NC2=Nc3cc(F)ccc3N(CC(F)F)c3ccc(Cl)cc32)C1"
target_of_assay = "Colon cancer organoid"
measure = "Cell Viability"
unit_of_measurement = "%"
value = 125.077

[[record]]
compound = "CC(=O)Nc1ncc(CN2CCC[C@H](Cc3cc(C)nc(C)c3)C2)s1"
target_of_assay = "Colon cancer organoid"
measure = "Cell Viability"
unit_of_measurement = "%"
value = 105.247

[[record]]
compound = "CCOC(=O)CCNc1cc(N2CCc3ccccc3CC2)nc(-c2ccccn2)n1"
target_of_assay = "Colon cancer organoid"
measure = "Cell Viability"
unit_of_measurement = "%"
value = 112.043

[[record]]
compound = "Cc1c(NC(=O)c2cc(C(N)=O)nc3cc(F)ccc23)c(C(F)(F)F)nn1Cc1ccc(C#N)cc1"
target_of_assay = "Colon cancer organoid"
measure = "Cell Viability"
unit_of_measurement = "%"
value = 74.218

[[record]]
compound = "Cc1c(N2CCCC2)nc2ccc(Br)cc2c1C(=O)NC[C@H](CCC(=O)O)c1ccccc1Cl"
target_of_assay = "Colon cancer organoid"
measure = "Cell Viability"
unit_of_measurement = "%"
value = 99.1733

[[record]]
compound = "Cc1ccc(C(=O)Nc2cccc(C(F)(F)F)c2)cc1Nc1nc(-c2cccnc2)nc2c1cnn2C"
target_of_assay = "Colon cancer organoid"
measure = "Cell Viability"
unit_of_measurement = "%"
value = 83.1262

[[record]]
compound = "Cc1cc2c(cc1N1C(=O)c3cccc4c(CCCO)ccc(c34)C1=O)n(C)c(=O)n2C"
target_of_assay = "Colon cancer organoid"
measure = "Cell Viability"
unit_of_measurement = "%"
value = 103.172

[[record]]
compound = "N#CN1CC[C@@H](C(=O)Nc2nc3c(s2)CN(C(=O)CN=[N+]=[N-])CC3)C1"
target_of_assay = "Colon cancer organoid"
measure = "Cell Viability"
unit_of_measurement = "%"
value = 79.6546

